B1: library; numbered along this chain (parent)
chain: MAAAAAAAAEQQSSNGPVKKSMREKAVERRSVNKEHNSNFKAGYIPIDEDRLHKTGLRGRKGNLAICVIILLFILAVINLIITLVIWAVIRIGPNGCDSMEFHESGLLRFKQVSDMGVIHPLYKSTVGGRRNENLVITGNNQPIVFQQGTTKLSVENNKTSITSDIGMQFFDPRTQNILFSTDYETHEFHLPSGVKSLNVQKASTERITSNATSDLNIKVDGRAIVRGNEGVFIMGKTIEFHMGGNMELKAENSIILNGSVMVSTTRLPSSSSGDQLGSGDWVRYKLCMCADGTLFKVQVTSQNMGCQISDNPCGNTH

- Variants of: B1
- protocol-details: SGCB cell-surface expression functional score (HA stain, bin4 vs bin1, normalised to synonymous) (log10 ratio); higher = more cell-surface SGCB (functional)
assay-endpoint: SGCB cell-surface expression functional score (log10)
Answer with the value's number alone.

Guide cases for SGCB cell-surface expression functional score (log10), answers given:
{"variant-id": "A7R", "recorded-measurement": 0.24}
{"variant-id": "K41N", "recorded-measurement": 0.25}
{"variant-id": "G194T", "recorded-measurement": -0.71}
{"variant-id": "F180K", "recorded-measurement": -1.78}
{"variant-id": "V77D", "recorded-measurement": 0.07}

Now turn to the next variant.
Query block: Could you please provide reported SGCB cell-surface expression functional score (log10) for H120S ? Thanks!
Result block: 0.28
